Target sequence: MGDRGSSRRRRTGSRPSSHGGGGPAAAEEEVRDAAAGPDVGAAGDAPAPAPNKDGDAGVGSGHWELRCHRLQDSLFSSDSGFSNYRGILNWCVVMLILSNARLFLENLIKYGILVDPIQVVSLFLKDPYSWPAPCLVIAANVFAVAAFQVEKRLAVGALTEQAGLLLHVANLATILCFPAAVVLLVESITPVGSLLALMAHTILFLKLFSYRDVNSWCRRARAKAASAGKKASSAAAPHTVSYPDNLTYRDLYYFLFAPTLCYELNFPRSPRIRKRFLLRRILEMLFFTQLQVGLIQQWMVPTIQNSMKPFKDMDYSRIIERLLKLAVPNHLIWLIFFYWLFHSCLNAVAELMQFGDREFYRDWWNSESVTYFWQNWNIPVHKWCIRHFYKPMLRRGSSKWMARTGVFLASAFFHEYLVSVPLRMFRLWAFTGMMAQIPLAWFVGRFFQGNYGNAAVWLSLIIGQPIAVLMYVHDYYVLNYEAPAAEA
measured-metric: IC50

1. CC1CCCN1CC(=O)Nc1ccc(N2CCN(C(=O)Nc3c(Cl)cccc3Cl)CC2)cc1 (stereo not drawn) : 1070 nM
2. O=C(CN1CCCC1)Nc1ccc(N2CCN(C(=O)Nc3c(Cl)cccc3Cl)CC2)cc1 : 1950 nM
3. COc1ccc(CC(=O)Nc2ccc(N3CCN(C(=O)Nc4c(Cl)cc(CN5CCN(S(C)(=O)=O)CC5)cc4Cl)CC3)cc2)cc1 : 1.7 nM
4. CN(CC(=O)Nc1ccc(N2CCN(C(=O)Nc3c(Cl)cccc3Cl)CC2)cc1)C(=O)CC(C)(C)C : 22.4 nM
5. NCCC(=O)Nc1ccc(C2CCN(C(=O)Nc3c(Cl)cccc3Cl)CC2)cc1 : 6920 nM
6. CCC(C(=O)Nc1ccc(N2CCN(C(=O)Cc3ccccc3C)CC2)cc1)c1ccccc1 (stereo not drawn) : 692 nM
7. CC(C)CC(=O)N(C)CC(=O)Nc1ccc(N2CCN(C(=O)Nc3c(Cl)cccc3Cl)CC2)cc1 : 30.9 nM
8. COc1ccc(CN(CCC(=O)Nc2ccc(N3CCN(C(=O)Nc4c(Cl)cccc4Cl)CC3)cc2)S(=O)(=O)c2ccccc2[N+](=O)[O-])cc1 : 34.7 nM
9. COc1ccc(CC(=O)Nc2ccc(N3CCN(C(=O)Nc4c(Cl)cc(CC[N+](C)(C)C)cc4Cl)CC3)cc2)cc1 : 63.1 nM
10. O=C(CCCc1ccccc1)Nc1ccc(N2CCN(C(=O)Nc3ccccc3C(F)(F)F)CC2)cc1 : 138 nM
11. O=C(CCCc1ccccc1)Nc1ccc(N2CCN(C(=O)C(O)c3c(F)cccc3F)CC2)cc1 (stereo not drawn) : 200 nM
12. C#CCC(NC(=O)OC(C)(C)C)C(=O)Nc1ccc(C2CCN(C(=O)Nc3c(Cl)cccc3Cl)CC2)cc1 (stereo not drawn) : 19.1 nM
13. COc1ccc(CC(=O)Nc2ccc(N3CCN(C(=O)Nc4c(Cl)cc(O)cc4Cl)CC3)cc2)cc1 : 4.68 nM
14. O=C(CCCc1ccccc1)Nc1ccc(N2CCN(C(=O)Nc3c(Cl)cc(O)cc3Cl)CC2)cc1 : 4.47 nM
15. COc1cc(Cl)c(NC(=O)N2CCN(c3ccc(NC(=O)CCCc4ccccc4)cc3)CC2)c(OC)c1 : 74.1 nM
16. Cc1cc(C)c(NC(=O)N2CCN(c3ccc(NC(=O)CCCc4ccccc4)cc3)CC2)c(Br)c1 : 6.17 nM
17. CC1CN(CC(=O)Nc2ccc(N3CCN(C(=O)Nc4c(Cl)cccc4Cl)CC3)cc2)CC(C)O1 (stereo not drawn) : 129 nM
18. CC(NCCCN(C)C)c1cc(Cl)c(NC(=O)N2CCN(c3ccc(NC(=O)CCCc4ccccc4)cc3)CC2)c(Cl)c1 (stereo not drawn) : 23.4 nM
19. CC1CCCN1CCC(=O)Nc1ccc(N2CCN(C(=O)Nc3c(Cl)cccc3Cl)CC2)cc1 (stereo not drawn) : 6170 nM
20. O=C(CCCc1ccccc1)Nc1ccc(N2CCN(C(=O)Nc3ccccc3I)CC2)cc1 : 126 nM
21. Cc1ccc(C)c(N2CCN(CC(=O)Nc3ccc(C4CCN(C(=O)Nc5c(Cl)cccc5Cl)CC4)cc3)CC2)c1 : 126 nM
22. N#CCCNCC(=O)Nc1ccc(C2CCN(C(=O)Nc3c(Cl)cccc3Cl)CC2)cc1 : 3800 nM
23. COCC(NC(=O)OC(C)(C)C)C(=O)Nc1ccc(C2CCN(C(=O)Nc3c(Cl)cccc3Cl)CC2)cc1 (stereo not drawn) : 166 nM
24. O=C(CCCc1ccccc1)Nc1ccc(N2CCN(C(=O)Nc3c(Cl)cccc3Cl)CC2)c(CO)c1 : 126 nM
25. CC(c1cc(Cl)c(NC(=O)N2CCN(c3ccc(NC(=O)CCCc4ccccc4)cc3)CC2)c(Cl)c1)N1CCCCC1 (stereo not drawn) : 16.2 nM
26. CN(C)CCC(=O)Nc1ccc(N2CCN(C(=O)Nc3c(Cl)cccc3Cl)CC2)cc1 : 6760 nM
27. CCOC(=O)CCCC(=O)Nc1ccc(N2CCN(C(=O)Nc3c(Cl)cc(CN4CCCCC4)cc3Cl)CC2)cc1 : 64.6 nM
28. COc1ccc(NC(=O)N2CCN(c3ccc(NC(=O)CCCc4ccccc4)cc3)CC2)c(OC)c1 : 603 nM
29. O=C(CCCc1ccccc1)Nc1ccc(N2CCN(C(=O)Nc3c(Cl)cc(Cl)cc3Cl)CC2)cc1 : 12.9 nM
30. O=C(CCCc1ccccc1)Nc1ccc(N2CCN(C(=O)C(O)c3ccc(F)cc3F)CC2)cc1 (stereo not drawn) : 115 nM

* * *

measured-metric: melting point (°C)

1) Cc1cccc(Cl)c1NC(=O)N1CCN(c2ccc(NC(=O)CCCc3ccccc3)cc2)CC1 [Compound 60] : 240.7
2) CC(C)(C)OC(=O)NC1(C(=O)Nc2ccc(N3CCN(C(=O)Nc4c(Cl)cccc4Cl)CC3)cc2)CCCC1 [Compound 5] : 242.6
3) CCOCCNC(=O)c1ccc(N2CCN(C(=O)Cc3c(Cl)cccc3Cl)CC2)cc1 [Compound 262] : 175.07
4) CN(Cc1ccccc1)C(=O)c1ccc(N2CCN(C(=O)Nc3c(Cl)cc(CN4CCCC4)cc3Cl)CC2)cc1 [Compound 266] : 161.47
5) CC(NCCCN(C)C)c1cc(Cl)c(NC(=O)N2CCN(c3ccc(NC(=O)CCCc4ccccc4)cc3)CC2)c(Cl)c1 (stereo not drawn) [Compound 54] : 125.4
6) O=C(NCC1CCOCC1)c1ccc(N2CCN(C(=O)Nc3c(Cl)cc(CN4CCCC4)cc3Cl)CC2)cc1 [Compound 264] : 223.77
7) COc1ccc(CN(C)C(=O)c2ccc(N3CCN(C(=O)Nc4c(Cl)cc(CN5CCCC5)cc4Cl)CC3)cc2)cc1 [Compound 263] : 132.84
8) O=C(NCc1ccc(-c2ccccn2)cc1)c1ccc(N2CCN(C(=O)Nc3c(Cl)cc(CN4CCCC4)cc3Cl)CC2)cc1 [Compound 236] : 217.37
9) O=C(CCCc1ccccc1)Nc1ccc(N2CCN(C(=O)Nc3c(F)cc(F)cc3F)CC2)cc1 [Compound 82] : 173.6
10) Cc1cc(C)cc(N2CCN(CC(=O)Nc3ccc(N4CCN(C(=O)Nc5c(Cl)cccc5Cl)CC4)cc3)CC2)c1 [Compound 41] : 186.1
11) COc1ccc(CNC(=O)c2ccc(N3CCN(C(=O)Nc4c(Cl)cc(CC(=O)N5CCN(C)CC5)cc4Cl)CC3)cc2)cc1 [Compound 228] : 220.01
12) O=C(NCc1cccc2ccccc12)c1ccc(N2CCN(C(=O)Cc3c(Cl)cccc3Cl)CC2)cc1 [Compound 229] : 242.15
13) COc1ccc(CC(=O)Nc2ccc(N3CCN(C(=O)Nc4c(Cl)cc(C[N+]5([O-])CCCC5)cc4Cl)CC3)cc2)cc1 [Compound 299] : 168.24
14) CCOC(=O)CC(=O)Nc1ccc(N2CCN(C(=O)Nc3c(Cl)cccc3Cl)CC2)cc1 [Compound 50] : 219.9
15) O=C(CCN1CCCCC1)Nc1ccc(N2CCN(C(=O)Nc3c(Cl)cccc3Cl)CC2)cc1 [Compound 138] : 241.1
16) O=C(CCOc1ccccc1)Nc1ccc(N2CCN(C(=O)Nc3c(Cl)cccc3Cl)CC2)cc1 [Compound 3] : 268.2
17) O=C(CCCc1ccccc1)Nc1ccc(N2CCN(C(=O)Nc3c(F)cccc3F)CC2)cc1 [Compound 67] : 187
18) CCCCCCC(=O)Nc1ccc(N2CCN(C(=O)Nc3c(Cl)cccc3Cl)CC2)cc1 [Compound 8] : 245.1
19) CN(C(=O)CCCc1ccccc1)c1ccc(N2CCN(C(=O)Nc3c(Cl)cccc3Cl)CC2)cc1 [Compound 42] : 175.2
20) O=C(CCCc1ccccc1)Nc1ccc(N2CCN(C(=O)Nc3c(Cl)cccc3C(F)(F)F)CC2)cc1 [Compound 62] : 254
21) Cc1ccc(NC(=O)N2CCN(c3ccc(NC(=O)CCCc4ccccc4)cc3)CC2)c(C)c1 [Compound 66] : 181.7
22) O=C(CCCc1ccccc1)Nc1ccc(N2CCN(C(=O)Nc3ccccc3F)CC2)cc1 [Compound 94] : 177.3
